# MEASURED_ON: δ-opioid receptor (Homo sapiens)
# Sequence (P41143 whole entry): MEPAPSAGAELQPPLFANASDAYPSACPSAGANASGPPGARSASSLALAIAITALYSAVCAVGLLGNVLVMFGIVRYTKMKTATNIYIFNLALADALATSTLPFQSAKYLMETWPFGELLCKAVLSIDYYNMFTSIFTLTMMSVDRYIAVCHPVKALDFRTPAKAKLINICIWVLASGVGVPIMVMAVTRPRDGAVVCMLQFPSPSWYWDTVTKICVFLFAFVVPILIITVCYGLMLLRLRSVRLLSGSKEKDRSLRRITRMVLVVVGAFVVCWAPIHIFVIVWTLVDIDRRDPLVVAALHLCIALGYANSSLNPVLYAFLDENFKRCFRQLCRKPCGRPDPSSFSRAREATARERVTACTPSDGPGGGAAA
# TEST_PROTOCOL: biochemical
# Assay type: binding
# TEST_PARAMETERS: read-out: Ki, δ; 125I-IOXY, hDOR-CHO, n = 3 (± SD)
MEASURE: Ki (nM)

Oc1cccc([C@]23CCC[C@H](C2)N(C[C@H]2C[C@H]2c2ccccc2)CC3)c1 [(+)−31]; 1980
Oc1cccc([C@@]23CCC[C@@H](C2)N(C[C@H]2C[C@H]2c2ccccc2)CC3)c1 [(+)−32]; 547
Oc1cccc([C@]23CCC[C@H](C2)N(C[C@@H]2C[C@@H]2c2ccccc2)CC3)c1 [(−)−32]; 196
Oc1cccc([C@@]23CCC[C@@H](C2)N(C[C@@H]2C[C@H]2c2ccccc2)CC3)c1 [(−)−29]; 800

----------
pKi overview
# MEASURED_ON: δ-opioid receptor (Homo sapiens)
# TEST_PROTOCOL: biochemical
# Assay type: binding
pKi: −log10 of the molar value.
MEASURE: pKi

Oc1cccc([C@@]23CCC[C@@H](C2)N(C/C=C\c2ccccc2)CC3)c1 [(+)−9]; 6.34
Oc1cccc([C@]23CCC[C@H](C2)N(C/C=C\c2ccccc2)CC3)c1 [(−)−9]; 6.44
Oc1cccc([C@]23CCC[C@H](C2)N(CC=Cc2ccccc2)CC3)c1 [(−)−6]; 6.82
Oc1cccc([C@@]23CCC[C@@H](C2)N(CC=Cc2ccccc2)CC3)c1 [(+)−6]; 6.86

----------
# MEASURED_ON: cloned human μ-opioid receptor (Homo sapiens)
# Sequence (P35372 whole entry): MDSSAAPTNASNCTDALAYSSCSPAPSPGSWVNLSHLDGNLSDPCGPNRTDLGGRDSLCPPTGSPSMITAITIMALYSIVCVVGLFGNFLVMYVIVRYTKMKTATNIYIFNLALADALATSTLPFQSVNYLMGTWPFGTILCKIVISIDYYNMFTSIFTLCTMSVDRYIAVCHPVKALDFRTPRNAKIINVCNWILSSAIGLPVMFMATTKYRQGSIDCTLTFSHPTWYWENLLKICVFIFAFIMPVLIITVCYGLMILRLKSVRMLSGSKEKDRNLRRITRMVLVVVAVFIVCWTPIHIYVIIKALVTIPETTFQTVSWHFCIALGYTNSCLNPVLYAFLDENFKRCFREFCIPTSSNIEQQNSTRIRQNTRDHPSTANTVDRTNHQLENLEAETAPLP
# TEST_PROTOCOL: biochemical
MEASURE: Kb (nM)

Oc1cccc([C@@]23CCC[C@@H](C2)N(CC=Cc2ccccc2)CC3)c1 [(+)−6]; 0.58
Oc1cccc([C@]23CCC[C@H](C2)N(CC=Cc2ccccc2)CC3)c1 [(−)−6]; 6.6
Oc1cccc([C@@]23CCC[C@@H](C2)N(C/C=C\c2ccccc2)CC3)c1 [(+)−9]; 3.1
Oc1cccc([C@]23CCC[C@H](C2)N(C/C=C\c2ccccc2)CC3)c1 [(−)−9]; 7.7

----------
# MEASURED_ON: κ-opioid receptor (Homo sapiens)
# Sequence (P41145 whole entry): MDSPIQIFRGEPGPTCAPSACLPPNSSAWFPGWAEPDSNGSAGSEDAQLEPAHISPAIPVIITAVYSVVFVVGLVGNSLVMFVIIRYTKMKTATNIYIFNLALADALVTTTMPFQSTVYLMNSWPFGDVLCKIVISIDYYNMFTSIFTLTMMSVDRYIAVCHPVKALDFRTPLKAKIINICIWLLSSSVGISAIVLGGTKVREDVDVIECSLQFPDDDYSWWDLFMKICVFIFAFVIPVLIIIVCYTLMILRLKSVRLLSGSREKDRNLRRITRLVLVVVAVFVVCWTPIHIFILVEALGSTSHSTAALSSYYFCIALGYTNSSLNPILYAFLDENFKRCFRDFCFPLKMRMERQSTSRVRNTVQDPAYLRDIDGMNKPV
# TEST_PROTOCOL: biochemical
# Assay type: binding
pKi: −log10 of the molar value.
MEASURE: pKi

Oc1cccc([C@]23CCC[C@H](C2)N(C/C=C\c2ccccc2)CC3)c1 [(−)−9]; 6.44
Oc1cccc([C@]23CCC[C@H](C2)N(CC=Cc2ccccc2)CC3)c1 [(−)−6]; 6.65
Oc1cccc([C@@]23CCC[C@@H](C2)N(CC=Cc2ccccc2)CC3)c1 [(+)−6]; 6.90
Oc1cccc([C@@]23CCC[C@@H](C2)N(C/C=C\c2ccccc2)CC3)c1 [(+)−9]; 6.91

----------
Ki overview
# MEASURED_ON: UniProt:P41145
# TEST_PROTOCOL: biochemical
# Format: binding
# TEST_PARAMETERS: read-out: Ki, κ
MEASURE: Ki

Oc1cccc([C@]23CCC[C@H](C2)N(C[C@H]2C[C@@H]2c2ccccc2)CC3)c1 [(+)−29]; 72 nM
Oc1cccc([C@@]23CCC[C@@H](C2)N(C[C@@H]2C[C@H]2c2ccccc2)CC3)c1 [(−)−29]; 390 nM
Oc1cccc([C@]23CCC[C@H](C2)N(C[C@@H]2C[C@@H]2c2ccccc2)CC3)c1 [(−)−32]; 322 nM
Oc1cccc([C@@]23CCC[C@@H](C2)N(C[C@H]2C[C@@H]2c2ccccc2)CC3)c1 [(+)−30]; 323 nM
